Recorded composite z-score for the following molecules
- Test system: Lefty1
- METHOD: Lefty1 binders on small-molecule microarrays, primary screen, biochemical, small-molecule microarray, 635/667 nm fluorescence (AID 1139)
- CONDITION LABEL: small-molecule microarray binding, fluorescence 635/667; higher = more signal
Kindly provide the number alone.

Below: 3 molecules and their reported composite z-score.
INSERT INTO results (test_smiles, system, assay_readout, numeric_readout) VALUES
  ('COc1ccc(O[C@H]2C=C[C@@H](c3ccccc3)O[C@@H]2CO)cc1', 'Lefty1', 'composite z-score', 0.479),
  ('COc1ccc(OC[C@H]2CN3[C@@H](CC[C@@H](C)[C@@H]3c3ccc(Br)cc3)C(=O)O2)cc1', 'Lefty1', 'composite z-score', 0.664),
  ('CCOC(=O)CCN1C(=O)[C@H]2[C@H]3[C@H](O)[C@H](O)CC(=NO[C@@H]4O[C@H](CO)[C@@H](O)[C@H](O)[C@H]4O)[C@@H]3CC[C@H]2C1=O', 'Lefty1', 'composite z-score', 1.4);

What value of composite z-score has been reported for the following molecule? COC(=O)CC=C[C@@H](C)[C@@H](C=NOC[C@@H](O)[C@H]1O[C@@H]2OC(C)(C)O[C@@H]2[C@H]1O)OC
0.59

What value of composite z-score has been reported for the following molecule? COC(=O)[C@@H]1CC[C@H](C)[C@@H](c2ccc(C)cc2)N1C(=O)c1ccc(C=NOC[C@@H](O)[C@H]2O[C@@H]3OC(C)(C)O[C@@H]3[C@H]2O)cc1
0.367

What value of composite z-score has been reported for the following molecule? CO[C@@H]1COC(=O)CC=C[C@H](C)[C@H](OC)COC(=O)[C@@H]2CCCN2C(=O)CC=C[C@H]1C
1.45

What value of composite z-score has been reported for the following molecule? CCOC(=O)CCN1C(=O)[C@H]2[C@H]3[C@H](O)[C@H](O)CC(=NOCC=C(C)CCC=C(C)C)[C@@H]3CC[C@H]2C1=O
0.537

----------
- METHOD: P. aeruginosa biofilm formation inhibitors, primary screen, PAO1 strain, BacTiter-Glo luminescence, LB-PBS (AID 1144)
- CONDITION LABEL: 12 h, higher = more signal
Assign YES to entries whose z-score meets or exceeds -0.2; assign NO to the rest.

// known answers, use as guide
INSERT INTO assay_data (compound, classification) VALUES
  ('CCOC(=O)[C@H](Cc1ccccc1)NC(=O)CCC1CC(OC(=O)NCc2ccc3c(c2)OCO3)CC2(CCCC(COC(=O)NCCOC)O2)O1 (stereo not given in full)', 'NO'),
  ('COC(=O)CC=C[C@@H](C)[C@@H](C=NOC(C)CN1CCCCc2nc(C)c(C)cc21)OC (stereo not given in full)', 'YES'),
  ('COC(=O)[C@@H]1CC[C@H](C)[C@@H](c2ccc(Br)cc2)N1C[C@H](O)CN=[N+]=[N-]', 'NO'),
  ('CCOC(=O)[C@H](Cc1ccccc1)NC(=O)CCC1CC(OC(=O)NCc2cccc3ccccc23)CC2(CCCC(COC(=O)NCC3CCCCC3)O2)O1 (stereo not given in full)', 'NO'),
  ('COc1ccc(O[C@H]2C=C[C@@H](c3ccccc3)O[C@@H]2COC(=O)CCC(C)=NOC[C@@H](O)COCc2ccco2)cc1', 'YES');

Quick check: does CO[C@H]1COC(=O)[C@H](C)COC(=O)[C@H](C)NC(=O)CC=C[C@H]1C have z-score greater than or equal to -0.2?
YES

Quick check: does CC(=O)OC[C@H]1O[C@H](CC=NOCC[C@@H]2C=C[C@H](OC(C)=O)[C@@H](COC(C)=O)O2)C=C[C@@H]1OC(C)=O have z-score greater than or equal to -0.2?
NO

Quick check: does CCOC(=O)CCN1C(=O)[C@H]2[C@H]3[C@H](O)[C@H](O)CC(=NNC(=O)OCc4ccccc4)[C@H]3CC[C@H]2C1=O have z-score greater than or equal to -0.2?
NO

Quick check: does CC(C)=NOC(C)CN1CCCc2nc(C)c(C)cc21 (stereo not given) have z-score greater than or equal to -0.2?
NO

Quick check: does CC(C)=NO[C@H](C)c1cn([C@@H]2COC[C@H]2O)nn1 have z-score greater than or equal to -0.2?
NO
